# target.system: human ether-à-go-go-related gene (hERG) potassium channel (human, UniProt Q12809);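 note: peak tail current of the secondary pulse compared with the same well before compound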
# Sequence (Q12809 whole entry, looked up): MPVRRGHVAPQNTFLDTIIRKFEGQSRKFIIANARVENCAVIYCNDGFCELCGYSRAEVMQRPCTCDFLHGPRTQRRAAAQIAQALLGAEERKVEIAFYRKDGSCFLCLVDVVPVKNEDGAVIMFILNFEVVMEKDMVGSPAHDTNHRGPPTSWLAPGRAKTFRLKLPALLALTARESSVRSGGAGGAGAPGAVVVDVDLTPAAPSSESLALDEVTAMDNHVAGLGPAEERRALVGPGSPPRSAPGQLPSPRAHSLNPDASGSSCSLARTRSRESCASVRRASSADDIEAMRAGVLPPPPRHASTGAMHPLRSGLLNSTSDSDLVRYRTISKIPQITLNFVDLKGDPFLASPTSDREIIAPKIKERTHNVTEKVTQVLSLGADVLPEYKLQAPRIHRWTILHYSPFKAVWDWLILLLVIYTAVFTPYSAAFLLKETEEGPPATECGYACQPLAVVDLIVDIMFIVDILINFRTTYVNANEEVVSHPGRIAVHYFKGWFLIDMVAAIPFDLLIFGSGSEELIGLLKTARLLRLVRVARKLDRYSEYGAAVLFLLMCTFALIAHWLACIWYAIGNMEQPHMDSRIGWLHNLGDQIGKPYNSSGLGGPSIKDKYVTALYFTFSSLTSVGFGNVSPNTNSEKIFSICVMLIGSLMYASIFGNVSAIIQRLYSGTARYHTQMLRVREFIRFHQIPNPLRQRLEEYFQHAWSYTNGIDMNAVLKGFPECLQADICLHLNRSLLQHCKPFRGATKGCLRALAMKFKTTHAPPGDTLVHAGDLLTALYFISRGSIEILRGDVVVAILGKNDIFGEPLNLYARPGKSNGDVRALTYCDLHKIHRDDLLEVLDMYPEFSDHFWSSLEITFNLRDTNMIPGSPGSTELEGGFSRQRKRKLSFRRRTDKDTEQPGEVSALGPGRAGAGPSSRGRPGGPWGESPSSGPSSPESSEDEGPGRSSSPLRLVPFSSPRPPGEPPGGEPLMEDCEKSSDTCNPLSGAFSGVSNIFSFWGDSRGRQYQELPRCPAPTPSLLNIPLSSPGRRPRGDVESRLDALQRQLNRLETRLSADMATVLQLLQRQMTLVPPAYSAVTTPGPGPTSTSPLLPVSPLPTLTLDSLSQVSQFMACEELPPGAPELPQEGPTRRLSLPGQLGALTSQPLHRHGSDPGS
# assay.details: primary screen, population patch clamp on CHO cells stably expressing hERG; higher = less effect of the substance
The whole screen tested about 310,000 compounds, of which about 14,000 (4.5%) showed an effect of 50% or more. Effects have a minus sign here. This is one part of a sample in which strong results are shown more often than they occur.
Known hERG current change (%, negative = inhibition) at 10uM of a selection of compounds
Dear colleague, please return just the value in %, with no unit written.

Solved entries:
                                   compound  numeric_readout
0  COc1ccc(Cc2noc(CN3CCCN(C4Cc5ccccc5C4)CC3)n2)cc1OC              -67
1  COc1ccc(Cc2noc(CN3CCC(c4ccncc4)CC3)n2)cc1OC              -20
2    Cc1ccc2nc(Nc3ccccc3O)nc(-c3ccccc3)c2c1             14.3
3  Cn1c(=O)n(C)c2cc(NC(=O)COc3ccc(Cl)cc3)ccc21            -59.4
4  Cc1ccccc1N1CC(C(=O)Nc2ccc(S(=O)(=O)N3CCCC3)cc2)CC1=O (stereo not shown)             3.59
5    CC(=O)Nc1ccc2c(c1)nc(CCN1CCN(C)CC1)n2C            -2.56
6  Cc1cc(=O)oc2cc(OCC(=O)OCc3nnc(-c4ccccc4)o3)ccc12             14.3
7  O=C(CSc1nnc(-c2cccnc2)n1Cc1ccco1)c1ccc2ccccc2c1            -45.6
8  Cn1c(=O)n(C)c2cc(NC(=O)COc3ccc(F)cc3)ccc21            -41.8

Proceed to the following item.
What does the data say about its hERG current change (%, negative = inhibition) at 10uM? Entry: CCN1CCN(CCc2nc3cc(NC(=O)COc4ccccc4)ccc3n2C)CC1 -49.8
